All values here come from patent US20220220218A1.

tgt: T1, human CD73 (huCD73) protein, antigen of the Biacore assay (human, UniProt P21589 27-547, limits assumed)
T1 construct: also called human CD73 antigen
T1 sequence (looked up): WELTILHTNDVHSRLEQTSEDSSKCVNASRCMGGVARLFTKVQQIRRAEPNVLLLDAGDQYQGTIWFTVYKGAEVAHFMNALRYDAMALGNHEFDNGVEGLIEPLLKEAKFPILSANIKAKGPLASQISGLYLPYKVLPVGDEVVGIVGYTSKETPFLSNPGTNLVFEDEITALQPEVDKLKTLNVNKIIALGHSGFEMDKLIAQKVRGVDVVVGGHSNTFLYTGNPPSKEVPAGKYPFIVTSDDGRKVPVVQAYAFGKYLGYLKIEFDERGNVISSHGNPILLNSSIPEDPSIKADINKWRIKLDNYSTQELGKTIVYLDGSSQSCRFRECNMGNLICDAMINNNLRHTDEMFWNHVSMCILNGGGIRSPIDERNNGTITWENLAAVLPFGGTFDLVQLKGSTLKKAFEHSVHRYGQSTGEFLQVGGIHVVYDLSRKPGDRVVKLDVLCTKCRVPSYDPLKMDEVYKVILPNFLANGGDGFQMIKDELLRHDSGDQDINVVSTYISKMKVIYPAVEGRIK
assayOverview: SPR Biacore T200; antibody captured on Protein A chip, CD73 in flow; 1:1 Langmuir
Listed binders paired with reported pKd
// returns pKd (minus log10 of molar concentration), number only

I would be grateful if you could share the reported pKd for Hab127.14 (antibody, V domains shown, VL1 + VH4; recombined with human heavy and light constant regions) VH: EVQLVQSGAEVKKPGASVKVSCKASGYTFTAYFMNWVMQAPGQSLEWIGRIYHNNGDTFYSQKFKGRATLTVDKSTSTVYMELRSLRSEDTAVYYCATSYVGDWGQGTTVTVSS VL: DIQMTQSPSSLSASVGDRVTITCRASQDIGDSLNWYQQKPGKAPKRLIYATSSLDSGVPSRFSGSGSGTEFTLTISSLQPEDFATYYCLQYASFPWTFGGGTKVEIK .
9.07

I would be grateful if you could share the reported pKd for Hab108.45 (antibody, V domains shown, VL4 + VH5; full-length antibody) VH: EVTLKESGPVLVKPTETLTLTCTVSGFSLKSYGIQWVRQPPGKLLEWLGVIWSGGSADYNAAFISRLTISKDTSKSQVVLTMTNMDPVDTATYYCAGQYGSVWGQGTLVTVSS VL: DIQMTQSPSSLSASVGDRVTITCRASQDIGDRLNWLQQKPGGAIKRLIYATSSLDSGVPSRFSGSGSGSEYTLTISSLQPEDFADYYCLQYAGSWTFGGGTKVEIK .
9.60

I would be grateful if you could share the reported pKd for Hab110.34 (antibody, V domains shown, VL3 + VH4; recombined with human heavy and light constant regions) VH: EVQLVQSGAEVKKPGASVKVSCKASGYTFTSYTMHWVRQAPGQRLEWIGYINPNSFYIEYNQKFKDKATLTADTSASTAYMELSSLRSEDTAVYYCARGDYDLFYDMDNWGQGTTVTVSS VL: DIQMTQSPSSLSASVGDRVTITCRASQDIGNSLNWLQQKPGGAIKRLIYATFRLDSGVPSRFSGSRSGTEYTLTISSLQPEDFADYYCQQYASFPWTFGGGTKVEIK .
9.64
